Reference source: paper PMC10202811

- Test: Plasma pharmacokinetics of lorlatinib at steady state (LC-MS/MS, non-compartmental analysis)
- Assay type: in vivo, human
- Assay setup: human, plasma, oral, 60 mg/m2, Cycle 1 Day 15; Cohort A1; 60 mg/m2 per dose; individual patients; read-out: AUCINF_pred
Observed property: AUC(0-inf) (ng·h/mL)
Only the number, expressed in ng·h/mL, is required.

[ask] Tell us which AUC(0-inf) value is on record for C[C@H]1Oc2cc(cnc2N)-c2c(nn(C)c2C#N)CN(C)C(=O)c2ccc(F)cc21
[reply] 5040

====

- Test: Plasma pharmacokinetics of lorlatinib at steady state (LC-MS/MS, non-compartmental analysis)
- Type: in vivo, human
- Assay setup: human, plasma, oral, 45 mg/m^2, steady state (cycle 1, day 15); Cohort A1; 45 mg/m^2 QD; (CV); read-out: Cmax
- Text: Lorlatinib was isolated from human plasma by a liquid-iquid extraction procedure. […] A linear-log trapezoidal method was used [NT] A best-fit method was used to estimate terminal elimination and to extrapolate any plasma concentration versus time profiles to compute [NT].
Observed property: Cmax (ng/mL)
Your answer is read as ng/mL, so omit the unit and give the number.

[ask] Please indicate Cmax recorded for C[C@H]1Oc2cc(cnc2N)-c2c(nn(C)c2C#N)CN(C)C(=O)c2ccc(F)cc21
[reply] 354

====

- Test: Plasma pharmacokinetics of lorlatinib at steady state (LC-MS/MS, non-compartmental analysis)
- Assay type: in vivo, human
- Assay setup: human, plasma, oral, 95 mg/m2, Cohort A1, 95 mg/m2 per dose, C1D15, Geometric Mean, N 9; read-out: Tmax
- Excerpt: Lorlatinib was isolated from human plasma by a liquid-iquid extraction procedure. […] A linear-log trapezoidal method was used [NT] A best-fit method was used to estimate terminal elimination and to extrapolate any plasma concentration versus time profiles to compute [NT].
Observed property: Tmax (h)
Write down the numeric answer in h and omit the unit.

[ask] Item C[C@H]1Oc2cc(cnc2N)-c2c(nn(C)c2C#N)CN(C)C(=O)c2ccc(F)cc21 : provide Tmax
[reply] 1.47

====

- Test: Plasma pharmacokinetics of lorlatinib at steady state (LC-MS/MS, non-compartmental analysis)
- Format: in vivo, human
- Assay setup: Cycle 1 Day 1, Cohort A2, 150 mg per dose
Observed property: Tlast (h)
I only need the number, in h, no unit after it.

[ask] Please report the measured Tlast for C[C@H]1Oc2cc(cnc2N)-c2c(nn(C)c2C#N)CN(C)C(=O)c2ccc(F)cc21 [Lorlatinib]
[reply] 24

====

- Test: Plasma pharmacokinetics of lorlatinib at steady state (LC-MS/MS, non-compartmental analysis)
- Assay type: in vivo, human
- Assay setup: human, plasma, oral, 95 mg/m2, Cycle 1 Day 15, Cohort B2, 95 mg/m2 per dose; read-out: AUCINF_obs
Observed property: AUC(0-inf) (ng·h/mL)
Reply numerically in ng·h/mL, unit not repeated.

[ask] Indicate its recorded AUC(0-inf); the molecule in question is C[C@H]1Oc2cc(cnc2N)-c2c(nn(C)c2C#N)CN(C)C(=O)c2ccc(F)cc21
[reply] 5730

====

- Test: Plasma pharmacokinetics of lorlatinib at steady state (LC-MS/MS, non-compartmental analysis)
- Type: in vivo, human
- Assay setup: human, plasma, oral, 95 mg/m2, steady state; Cohort B2 (with topotecan/cyclophosphamide); 95 mg/m^2 QD; individual values; read-out: Cmax
Observed property: Cmax (ng/mL)
Reply with just the number (in ng/mL).

[ask] Kindly indicate its recorded Cmax. Item: C[C@H]1Oc2cc(cnc2N)-c2c(nn(C)c2C#N)CN(C)C(=O)c2ccc(F)cc21 [Lorlatinib]
[reply] 926
